Listed below: pKd values for each entry.
SYSTEM_UNDER_TEST: T1, human CD33 extracellular domain (human, UniProt P20138 18-259)
T1 construct: soluble monomeric ECD; also called human CD33 ECD; hCD33
ASSAY_NOTES: BLI Octet, IgG loaded;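 also: IgGs captured on AHC biosensors, exposed to 100 nM antigen for 3 min association then 3 min dissociation in buffer, kinetics fitted with a 1:1 binding model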
Conceptually, pKd converts a concentration in mol/L into minus its log10.

# annotated cases, reported pKd shown
ADI-10163 IgG (antibody, V domains shown, IgG; also called Ab17) VH: QVQLQESGPGLVKPSQTLSLTCTVSGGSISSGGYYWSWIRQHPGKGLEWIGSIYYSGSTYYNPSLKSRVTISVDTSKNQFSLKLSSVTAADTAVYYCARDRLDYSYNYGMDVWGQGTTVTVSS VL: DIQMTQSPSSLSASVGDRVTITCRASQSISSYLNWYQQKPGKAPKLLIYGASSLQSGVPSRFSGSGSGTDFTLTISSLQPEDFATYYCQQVYSAPFTFGGGTKVEIK    8.17
ADI-11825 IgG (antibody, V domains shown, IgG; also called Ab25) VH: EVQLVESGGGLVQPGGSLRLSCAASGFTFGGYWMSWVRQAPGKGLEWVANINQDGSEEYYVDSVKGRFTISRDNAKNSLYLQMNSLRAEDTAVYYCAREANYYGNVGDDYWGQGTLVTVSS VL: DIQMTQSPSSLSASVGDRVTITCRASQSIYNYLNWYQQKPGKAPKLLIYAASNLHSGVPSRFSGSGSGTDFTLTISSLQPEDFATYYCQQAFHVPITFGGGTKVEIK    9.27

Proceeding to the next binder to report its pKd.
Q: What does the data say about its pKd? Entry: ADI-11807 IgG (antibody, V domains shown, IgG; also called Ab5; I07) VH: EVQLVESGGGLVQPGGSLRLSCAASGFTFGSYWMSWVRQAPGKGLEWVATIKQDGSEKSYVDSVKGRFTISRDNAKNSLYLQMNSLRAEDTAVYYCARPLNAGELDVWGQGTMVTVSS VL: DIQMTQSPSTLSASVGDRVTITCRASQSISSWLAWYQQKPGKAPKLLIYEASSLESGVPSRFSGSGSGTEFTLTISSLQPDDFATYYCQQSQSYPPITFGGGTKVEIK
Ans: 9.51
